- Tested on: KM12 colon
- assay.name: NCI-60 one-dose screen, 48 h
- measurement.parameters: 10 µM
This is part of a sample that, as a whole, favours compounds with a hit. Of some 83,000 tested, about 20% had one in any assay. The source made the active and inactive calls. Rule for the calls: active = growth percent below 10; inactive = the rest.
Answer with one of the outcomes active, inactive

input: // param item: CCOC(=O)c1ccc(NC(=O)CSC(CC(=O)c2sc(Nc3ccccn3)nc2C)c2ccccc2F)cc1 (centres undefined) ; yields the recorded call
output: active

input: How was `Cc1ccc(S(=O)(=O)N2CCN(S(=O)(=O)c3oc(-c4ccccc4)nc3C#N)CC2)cc1` classified in this test?
output: inactive

input: GET /call?item= COc1ccc(C2OC[C@@]3(C)C4CC[C@]5(C)C(CC=C6C7CC(C)(C)CC[C@]7(C(=O)O)CC[C@]65C)[C@@]4(C)C[C@@H](O)[C@@H]3O2)cc1 (some centres undefined) returns the recorded outcome of this test.
output: inactive

input: Called result for `O=C(c1ccccc1)c1ccc2nc(-c3ccccc3Br)[nH]c2c1`
output: active

The measurements presented in this section are drawn from PubChem BioAssay (NCI).
